# study_target: UniProt P48048
# Sequence (P48048 whole entry, species assumed): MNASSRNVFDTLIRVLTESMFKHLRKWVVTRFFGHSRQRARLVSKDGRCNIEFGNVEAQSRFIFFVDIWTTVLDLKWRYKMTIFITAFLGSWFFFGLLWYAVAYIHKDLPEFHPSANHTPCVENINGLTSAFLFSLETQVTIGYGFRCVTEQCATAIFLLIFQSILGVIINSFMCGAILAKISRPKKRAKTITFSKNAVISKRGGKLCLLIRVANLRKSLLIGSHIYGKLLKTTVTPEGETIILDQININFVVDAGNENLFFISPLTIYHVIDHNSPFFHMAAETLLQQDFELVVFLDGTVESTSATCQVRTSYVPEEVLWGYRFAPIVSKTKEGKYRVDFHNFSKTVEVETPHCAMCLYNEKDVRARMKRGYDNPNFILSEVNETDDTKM
# method_summary: Electrophysiology Assay (whole cell voltage clamp, IonWorks Quattro)
# Assay type: cell-based
# study_conditions: Chinese hamster ovary cells stably expressing Kir1.1; block during voltage step to 0 mV; read-out: Electrophysiology IC50
pIC50: −log10 of the molar value. Counter-ions that a name gives are not always drawn.
Param threshold (7) applies to pIC50; output 1 when value >= threshold, 0 when value < threshold.

[[record]]
compound = "Cc1c([C@@H]2CN3CCN(C4CCc5cc(C#N)ccc5C4)C[C@H]3CO2)ccc2c1COC2=O (stereo partly shown) [Example 100, trifluoroacetate]"
study_target = "UniProt P48048"
discrete_label = 0

[[record]]
compound = "Cc1c(CCN2CCN3C[C@@H](c4ccc5c(c4)COC5=O)OC[C@@H]3C2)ccc2c1COC2=O"
study_target = "UniProt P48048"
discrete_label = 1

[[record]]
compound = "COc1cc(CCN2CCN3C[C@@H](c4ccc5c(c4C)COC5=O)OC[C@@H]3C2)cc(F)c1C#N"
study_target = "UniProt P48048"
discrete_label = 0

[[record]]
compound = "COc1cc(CCN2CCN3C[C@H](c4ccc5c(c4C)COC5=O)OC[C@H]3C2)c(F)cc1C#N"
study_target = "UniProt P48048"
discrete_label = 0

[[record]]
compound = "Cc1c([C@H](O)CN2CCN3C[C@@H](c4ccc5c(c4)COC5=O)OC[C@@H]3C2)ccc2c1COC2=O"
study_target = "UniProt P48048"
discrete_label = 1

